Values were extracted from the supplement of paper PMC12042874.

experiment: amyloid nucleation score (Sup35N fusion, yeast selection) (log enrichment); library NNK2; higher = more nucleation; inactive = no reads after selection;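 further: zero at mode of non-aggregating sequences after 7 days selection at 30°C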
Group membership follows amyloid nucleation score per the scheme low class (below -0.5), middle class (-0.5 to below 0.2), high class (0.2 or more)

For this substance, which bin applies? `YYAGADFEGNSCGDSIPACR`
middle class

Tag the class for `DGDNNCMCS`
high class

Category of `IIDNYNYMF` :
low class

Pick a category. Item: `STQLDSKILINLRFFRMSIV`
middle class

Returns: class label. Input: `GFHQFPVDVVALGWSILRCF`
middle class

Using the reported amyloid nucleation score, which band applies to `SVINYVFMGDHPYHNVIFRF` ?
high class

Which class is correct for the following substance? `INCRFMVCWA`
high class

Just checking, what class would you give `VMRHERTNFIYSKWWGFVEE` here?
middle class

In plain terms, what class is `IRCCVQFIQLSQGNNVWVRS` ?
high class

# classify by amyloid nucleation score band: `PILADGLCIFNR`
middle class

Exam item: assign `RMLRKSNGS` to the correct category.
middle class

Just checking, what class would you give `IWYESWEQHGKDVQVPMVTD` here?
high class

Lab log: `SVNFSANRRNIDGFERAGPA` — assign amyloid nucleation score category
middle class

Which band does `YRWVRVSNRGCRTNMIKYMS` fall in?
low class

Returns: class label. Input: `LEMCVLR`
high class

Sort into band: `TVGHDQASYMGFGSFYTSVF`
low class

Please classify: `CYFNARSDSVNVYVV`
middle class
